# TARGET_ENTITY: Cathepsin S (Homo sapiens)
# Sequence (P25774 115-331): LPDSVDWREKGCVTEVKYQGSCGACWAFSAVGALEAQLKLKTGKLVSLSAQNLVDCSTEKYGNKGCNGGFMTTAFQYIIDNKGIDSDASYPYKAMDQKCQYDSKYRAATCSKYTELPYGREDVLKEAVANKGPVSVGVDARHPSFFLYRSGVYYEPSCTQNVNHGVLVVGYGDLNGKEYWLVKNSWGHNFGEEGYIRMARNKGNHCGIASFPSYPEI
# TEST_PROTOCOL: Cathepsin S enzymatic assay (assay 1)
# STUDY_CONDITIONS: human recombinant enzyme, KQKLR-AMC substrate, pH 6.5
pIC50: −log10 of the molar value. Structures can show the parent of a compound that is named as a salt.
MEASURE: pIC50

>>> measured_result("CN1CCN(Cc2ccc(-c3ccc(C(=O)NN(c4nc(C#N)ncc4Br)C4CCCCC4)cn3)cc2)CC1 [Example 44, trifluoroacetate]")
"> 6.70"
>>> measured_result("CC1CCC(N(NC(=O)c2ccc(CN3CCN(CC4CCN(C)CC4)CC3)cc2)c2nc(C#N)ncc2Br)C1 (mixture of isomers) [Example 5, trifluoroacetate]")
"> 6.00"
>>> measured_result("CN1CCN(Cc2ccc(C(=O)NN(c3nc(C#N)ncc3Br)C3CCCC3)cc2)CC1 [Example 1A]")
"> 6.00"
>>> measured_result("CC(C)N(CCN(C(=O)OC(C)(C)C)C(C)C)Cc1ccc(C(=O)NN(c2nc(C#N)ncc2Cl)C2CCCC2)cc1 [Example 85, trifluoroacetate]")
"> 6.70"

###

This listing pairs molecules with measured IC50.
# TARGET_ENTITY: Falcipain-2 (Plasmodium falciparum, UniProt Q8I6U4)
# Sequence (Q8I6U4 244-484): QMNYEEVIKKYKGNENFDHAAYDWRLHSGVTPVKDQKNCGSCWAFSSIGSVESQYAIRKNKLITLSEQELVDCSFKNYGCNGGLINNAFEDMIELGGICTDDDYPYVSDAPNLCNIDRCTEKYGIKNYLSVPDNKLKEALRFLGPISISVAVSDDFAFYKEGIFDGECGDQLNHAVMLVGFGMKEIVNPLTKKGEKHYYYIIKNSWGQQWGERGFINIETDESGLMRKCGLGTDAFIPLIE
# TEST_PROTOCOL: Falcipain-2 enzymatic assay (assay 1)
# Type: biochemical
# Description: Assay 1) Determination of Falcipain-2, Falcipain-3, Vivapain-2, Cathepsin K Cathepsin S, Cathepsin L, and Cathepsin B Proteolytic Catalytic Activity Assays for Falcipain-2, Falcipain-3, and Vivapain-2 are carried out with parasitic recombinant enzymes. […] Product formation (AFC or AMC) is determined from fluorescence (excitation at 405 nm; emission at 530 nm, AFC, or excitation at 360 nm; emission at 460 nm, AMC) monitored with a LJL Aquest (Molecular Devices) fluorescent plate reader. […]
Structures can show the parent of a compound that is named as a salt.
MEASURE: IC50

>>> measured_result("CN1CCC(CN2CCN(Cc3cccc(C(=O)NN(c4nc(C#N)ncc4Br)C4CCCC4)c3)CC2)CC1 [Example 15, trifluoroacetate]")
"< 1 nM"
>>> measured_result("CN1CCCC(CN2CCN(Cc3ccc(C(=O)NN(c4nc(C#N)ncc4Br)C4CCOCC4)cc3)CC2)C1 (stereo not drawn) [Example 31, trifluoroacetate]")
"< 1 nM"
>>> measured_result("CN1CCC(CN2CCN(Cc3cccc(C(=O)NN(c4nc(C#N)ncc4Br)C4CCCCC4)c3)CC2)CC1 [Example 28, trifluoroacetate]")
"< 1 nM"
>>> measured_result("CN1CCN(Cc2cccc(-c3cncc(C(=O)NN(c4nc(C#N)ncc4Br)C4CCCCC4)c3)c2)CC1 [Example 47, trifluoroacetate]")
"< 1 nM"
>>> measured_result("CN1CCC(CN2CCN(Cc3ccc(C(=O)NN(c4nc(C#N)ncc4Cl)C4CCOCC4)cc3)CC2)CC1 [Example 35, trifluoroacetate]")
"1 to 2.5 nM"
>>> measured_result("CN1CCN(C(=O)C2CCN(Cc3ccc(C(=O)NN(c4nc(C#N)ncc4Br)C4CCCCC4)cc3)CC2)CC1 [Example 22, trifluoroacetate]")
"< 1 nM"

###

# TARGET_ENTITY: Cathepsin K (Homo sapiens, UniProt P43235)
# Sequence (P43235 115-329): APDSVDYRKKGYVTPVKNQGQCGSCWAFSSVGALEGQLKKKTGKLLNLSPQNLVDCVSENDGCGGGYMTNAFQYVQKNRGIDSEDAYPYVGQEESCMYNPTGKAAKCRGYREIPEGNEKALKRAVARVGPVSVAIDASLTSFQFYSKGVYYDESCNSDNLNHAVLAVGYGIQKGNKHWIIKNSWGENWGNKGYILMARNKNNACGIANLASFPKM
# TEST_PROTOCOL: Cathepsin K enzymatic assay (assay 1)
# STUDY_CONDITIONS: human recombinant enzyme, Z-FR-AFC substrate, pH 5.5
Counter-ions that a name gives are not always drawn.
MEASURE: IC50

>>> measured_result("CN1CCC(CN2CCN(Cc3ccc(C(=O)NN(c4nc(C#N)ncc4Br)C4CCOCC4)cc3)CC2)CC1 [Example 30, trifluoroacetate]")
"< 17 nM"
>>> measured_result("CN1CCN(C2CCN(Cc3cccc(C(=O)NN(c4nc(C#N)ncc4Br)C4CCCC4)c3)CC2)CC1 [Example 11, trifluoroacetate]")
"< 1.5 nM"
>>> measured_result("CC1CCC(N(NC(=O)c2ccc(CN3CCC(N4CCN(C)CC4)CC3)cc2)c2nc(C#N)ncc2Br)C1 (mixture of isomers) [Example 4, trifluoroacetate]")
"< 1.5 nM"
>>> measured_result("CN1CCN(C(=O)C2CCN(Cc3ccc(C(=O)NN(c4nc(C#N)ncc4Br)C4CCCC4)cc3)CC2)CC1 [Example 9, trifluoroacetate]")
"< 1.5 nM"
>>> measured_result("CN1CCC(CN2CCN(Cc3ccc(C(=O)NN(c4nc(C#N)ncc4Br)C4CCCC4)cc3)CC2)CC1 [Example 7, trifluoroacetate]")
"< 1.5 nM"
>>> measured_result("CN1CCN(C2CCN(Cc3ccc(C(=O)NN(c4nc(C#N)ncc4Br)C4CCCCC4)cc3)CC2)CC1 [Example 17, trifluoroacetate]")
"< 1.5 nM"
>>> measured_result("CN1CCN(Cc2ccc(C(=O)NN(c3nc(C#N)ncc3Cl)C3CCCCC3)cc2)CC1 [Example 51, trifluoroacetate]")
"< 1.5 nM"
>>> measured_result("CN1CCN(Cc2ccc(C(=O)NN(c3nc(C#N)ncc3Br)C3CCCCC3)cc2)CC1 [Example 16, trifluoroacetate]")
"< 1.5 nM"
>>> measured_result("N#Cc1ncc(Br)c(N(NC(=O)c2cccc(CN3CCC(N4CCOCC4)CC3)c2)C2CCCCC2)n1 [Example 24, trifluoroacetate]")
"< 1.5 nM"
>>> measured_result("CN1CCCC(CN2CCN(Cc3cccc(C(=O)NN(c4nc(C#N)ncc4Br)C4CCCCC4)c3)CC2)C1 (stereo not shown) [Example 27, trifluoroacetate]")
"< 1.5 nM"
>>> measured_result("N#Cc1ncc(Br)c(N(NC(=O)c2ccc(CN3CCC(N4CCOCC4)CC3)cc2)C2CCCCC2)n1")
"< 1.5 nM"
>>> measured_result("C[C@H]1CCC[C@H]1N(NC(=O)c1ccc(CN2CCN(C)CC2)cc1)c1nc(C#N)ncc1Br")
"< 17 nM"
>>> measured_result("CN1CCN(Cc2ccc(-c3cncc(C(=O)NN(c4nc(C#N)ncc4Br)C4CCCC4)c3)cc2)CC1 [Example 45, trifluoroacetate]")
"< 1.5 nM"

Numbers sourced from patent US20100009956A1.
